study system: human muscarinic M4 receptor (Homo sapiens, UniProt P08173)
Construct: expressed in transfected cells
Sequence (P08173 1-479): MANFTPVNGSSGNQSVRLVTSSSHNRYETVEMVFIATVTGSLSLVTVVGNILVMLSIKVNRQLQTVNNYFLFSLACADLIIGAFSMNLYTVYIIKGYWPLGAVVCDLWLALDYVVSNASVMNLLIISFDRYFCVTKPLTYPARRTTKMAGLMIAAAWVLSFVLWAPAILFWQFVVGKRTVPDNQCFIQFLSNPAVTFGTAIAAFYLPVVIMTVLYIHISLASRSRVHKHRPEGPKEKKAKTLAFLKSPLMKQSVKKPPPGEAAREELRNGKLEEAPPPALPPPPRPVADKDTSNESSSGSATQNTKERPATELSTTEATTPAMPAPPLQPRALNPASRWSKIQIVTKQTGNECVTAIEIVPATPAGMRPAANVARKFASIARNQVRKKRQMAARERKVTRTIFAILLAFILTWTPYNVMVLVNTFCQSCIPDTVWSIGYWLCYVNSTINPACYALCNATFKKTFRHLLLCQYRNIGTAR
protocol details: Alphascreen Surefire phospho-ERK1/2 functional assay, M4
Format: cell-based
condition context: CHO, read-out: % Emax cf. ACh, M4
measured property: Emax (%)
All answers are understood in %, so give the number only.

molecule	value unit	Emax
[2H]C([2H])([2H])C([2H])([2H])OC(=O)N1CCC2(CC(N3CCC(C(=O)NC4(C)CCC4)CC3)C2)C1 (single isomer, unassigned) [Example 29 - Isomer 2]	%	91
[2H]C([2H])([2H])C1(NC(=O)C2CCN(C3CC4(CCN(C(=O)OC([2H])([2H])C([2H])([2H])[2H])C4)C3)CC2)CCC1 (single isomer, unassigned) [Example 30 - Isomer 2]	%	111
[2H]C([2H])([2H])COC(=O)N1CCC2(CC(N3CCC(C(=O)NC4(C([2H])([2H])[2H])CCC4)CC3)C2)C1 (single isomer, unassigned) [Example 26 - Isomer 2]	%	110

Measured on human muscarinic M4 receptor (Homo sapiens, UniProt P08173), [2H]C([2H])([2H])COC(=O)N1CCC2(CC(N3CCC(C(=O)NC4(C)CCC4)CC3)C2)C1 (single isomer, unassigned) [Example 25 - Isomer 2] has a documented Emax of 83

Readout Emax for CCOC(=O)N1CC2CC(N3CCC(C(=O)NC4(C)CCC4)CC3)CC2C1 (mixture of isomers) [Example 8 - mixture of diastereomers] , test system human muscarinic M4 receptor (Homo sapiens, UniProt P08173), was 29

====

study system: human muscarinic M4 receptor (Homo sapiens)
Construct: expressed in transfected cells
Sequence (P08173 1-479): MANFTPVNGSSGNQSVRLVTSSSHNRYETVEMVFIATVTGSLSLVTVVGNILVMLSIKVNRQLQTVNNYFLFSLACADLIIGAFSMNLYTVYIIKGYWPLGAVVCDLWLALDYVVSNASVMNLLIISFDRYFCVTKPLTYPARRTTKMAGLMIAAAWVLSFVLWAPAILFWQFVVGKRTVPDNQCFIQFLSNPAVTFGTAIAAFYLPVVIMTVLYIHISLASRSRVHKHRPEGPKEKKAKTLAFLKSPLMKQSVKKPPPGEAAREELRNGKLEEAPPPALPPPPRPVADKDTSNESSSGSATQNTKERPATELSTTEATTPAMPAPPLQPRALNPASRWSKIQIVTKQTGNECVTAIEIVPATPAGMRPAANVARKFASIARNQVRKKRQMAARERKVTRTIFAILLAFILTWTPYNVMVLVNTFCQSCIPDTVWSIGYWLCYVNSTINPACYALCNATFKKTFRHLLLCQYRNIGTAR
protocol details: Alphascreen Surefire phospho-ERK1/2 functional assay, M4
Type: cell-based
condition context: CHO cells stably expressing human M4; phospho-ERK1/2; read-out: pEC50 M4 (converted)
measured property: EC50 (µM)
Reply numerically in µM, unit not repeated.

Some solved entries appear below for comparison.
molecule	study system	EC50 / µM
[2H]C([2H])([2H])COC(=O)N1CCC2(CC(N3CCC(C(=O)NC4(C)CCC4)CC3)C2)C1 (single isomer, unassigned) [Example 25 - Isomer 2]	human muscarinic M4 receptor (Homo sapiens)	0.174
CCOC(=O)N1CCC2(CC(N3CCC(C(=O)NC(C)(C)CC)CC3)C2)C1 (mixture of isomers) [Example 16 - mixture of diastereomers]	human muscarinic M4 receptor (Homo sapiens)	0.646
CCOC(=O)N1CCC2(CC(N3CCC(C(=O)NC4(C)CCC4)CC3)C2)C1 (single isomer, unassigned) [Example 9 - Isomer 2]	human muscarinic M4 receptor (Homo sapiens)	0.182

Lab note: measured EC50 of CCOC(=O)N1[C@@H]2CCC[C@H]1CC(N1CCC(C(=O)NC3(C)CCC3)CC1)C2 (mixture of isomers) [Example 6 - mixture of diastereomers] was 0.468

What the record says about [2H]C([2H])([2H])COC(=O)N1CCC2(CC(N3CCC(C(=O)NC4(C([2H])([2H])[2H])CCC4)CC3)C2)C1 (single isomer, unassigned) [Example 26 - Isomer 2] : EC50 is 0.257

====

study system: human muscarinic M3 receptor (Homo sapiens, UniProt P20309)
Construct: expressed in transfected cells
Sequence (P20309 whole entry): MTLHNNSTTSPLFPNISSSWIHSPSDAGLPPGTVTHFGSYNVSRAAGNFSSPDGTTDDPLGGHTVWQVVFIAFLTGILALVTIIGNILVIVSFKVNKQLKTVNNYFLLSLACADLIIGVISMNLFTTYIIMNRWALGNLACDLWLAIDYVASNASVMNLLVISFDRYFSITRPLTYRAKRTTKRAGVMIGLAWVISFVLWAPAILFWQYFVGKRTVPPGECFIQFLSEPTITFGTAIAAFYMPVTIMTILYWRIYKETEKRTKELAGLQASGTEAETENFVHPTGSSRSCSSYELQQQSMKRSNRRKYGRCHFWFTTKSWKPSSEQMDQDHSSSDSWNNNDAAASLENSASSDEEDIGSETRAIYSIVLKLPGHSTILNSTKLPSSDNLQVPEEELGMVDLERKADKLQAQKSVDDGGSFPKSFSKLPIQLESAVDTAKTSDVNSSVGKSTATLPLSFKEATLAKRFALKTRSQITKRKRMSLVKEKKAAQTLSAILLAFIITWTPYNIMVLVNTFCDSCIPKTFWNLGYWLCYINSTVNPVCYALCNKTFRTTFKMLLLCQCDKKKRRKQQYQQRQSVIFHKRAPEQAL
protocol details: Alphascreen Surefire phospho-ERK1/2 functional assay, M3
Assay type: cell-based
condition context: CHO cells stably expressing human M3; phospho-ERK1/2; read-out: pEC50 M3 (converted)
measured property: EC50

Use these answered entries as a reference point.
compound	EC50
CCOC(=O)N1CC2(CCC(N3CCC(C(=O)NC4(C)CCC4)CC3)C2)C1 (racemic) [Example 12 - racemic]	> 20 µM
[2H]C([2H])([2H])COC(=O)N1CCC2(CC(N3CCC(C(=O)NC4(C)CCC4)CC3)C2)C1 (single isomer, unassigned) [Example 25 - Isomer 2]	> 20 µM

Form field, EC50 with human muscarinic M3 receptor (Homo sapiens, UniProt P20309), item [2H]C([2H])([2H])C([2H])([2H])OC(=O)N1CCC2(CC(N3CCC(C(=O)NC4(C)CCC4)CC3)C2)C1 (single isomer, unassigned) [Example 29 - Isomer 2] : > 20 µM

====

study system: human muscarinic M3 receptor (Homo sapiens, UniProt P20309)
Construct: expressed in transfected cells
protocol details: Alphascreen Surefire phospho-ERK1/2 functional assay, M3
Type: cell-based
condition context: CHO, read-out: % Emax cf. ACh, M3
Below is a list of entries, each paired with its recorded Emax value.
Just the number in %, nothing appended.

Examples with answers:
molecule	study system	value unit	experimental result
CCOC(=O)N1CCC2(CC(N3CCC(C(=O)NC4(C)CCC4)CC3)C2)C1 (mixture of isomers) [Example 9 - mixture of diastereomers]	human muscarinic M3 receptor (Homo sapiens, UniProt P20309)	%	5
CCOC(=O)N1CC2(CCC(N3CCC(C(=O)NC4(C)CCC4)CC3)C2)C1 (racemic) [Example 12 - racemic]	human muscarinic M3 receptor (Homo sapiens, UniProt P20309)	%	78
[2H]C([2H])([2H])C1(NC(=O)C2CCN(C3CC4(CCN(C(=O)OCC)C4)C3)CC2)CCC1 (single isomer, unassigned) [Example 21 - Isomer 2]	human muscarinic M3 receptor (Homo sapiens, UniProt P20309)	%	12
[2H]C([2H])([2H])C([2H])([2H])OC(=O)N1CCC2(CC(N3CCC(C(=O)NC4(C)CCC4)CC3)C2)C1 (single isomer, unassigned) [Example 29 - Isomer 2]	human muscarinic M3 receptor (Homo sapiens, UniProt P20309)	%	13
CC#CCOC(=O)N1C2CCC1CC(N1CCC(C(=O)NC3(C)CCC3)CC1)C2 (single isomer, unassigned) [Example 3 - Isomer 2]	human muscarinic M3 receptor (Homo sapiens, UniProt P20309)	%	2

Consider the additional molecule presented here.
According to the records, this molecule CCOC(=O)N1CC2CC(N3CCC(C(=O)NC4(C)CCC4)CC3)CC1C2 (mixture of isomers) [Example 7 - mixture of diastereomers] displays Emax of 4

====

study system: human muscarinic M1 receptor (Homo sapiens)
Construct: expressed in transfected cells
Sequence (P11229 whole entry): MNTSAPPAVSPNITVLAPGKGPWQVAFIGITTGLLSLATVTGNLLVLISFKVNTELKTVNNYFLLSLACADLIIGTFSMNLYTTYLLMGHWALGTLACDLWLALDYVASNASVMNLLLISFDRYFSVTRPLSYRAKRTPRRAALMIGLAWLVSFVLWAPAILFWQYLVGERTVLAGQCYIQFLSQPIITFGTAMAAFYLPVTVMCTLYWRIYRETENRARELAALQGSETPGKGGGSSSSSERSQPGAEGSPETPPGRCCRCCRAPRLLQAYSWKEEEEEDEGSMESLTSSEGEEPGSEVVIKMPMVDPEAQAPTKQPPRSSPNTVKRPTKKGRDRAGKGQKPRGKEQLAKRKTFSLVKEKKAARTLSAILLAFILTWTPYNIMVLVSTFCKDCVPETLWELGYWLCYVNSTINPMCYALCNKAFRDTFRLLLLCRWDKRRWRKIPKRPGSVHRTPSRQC
protocol details: Alphascreen Surefire phospho-ERK1/2 functional assay, M1
Type: cell-based
condition context: CHO cells stably expressing human M1; phospho-ERK1/2; read-out: pEC50 M1 (converted)
Recorded EC50 for the following compounds
The reply should consist of the numeric value with the unit placed after it.

compound	EC50
CCOC(=O)N1CCC2(CC(N3CCC(C(=O)NC4(C)CCC4)CC3)C2)C1 (single isomer, unassigned) [Example 9 - Isomer 1]	302 nM
CCOC(=O)N1C2CCC1CC(N1CCC(C(=O)NC3(C)CCC3)CC1)C2 (single isomer, unassigned) [Example 1 - Isomer 1]	324 nM

Now let's try a different one.
Record [2H]C([2H])([2H])C1(NC(=O)C2CCN(C3CC4(CCN(C(=O)OCC)C4)C3)CC2)C([2H])([2H])C([2H])([2H])C1([2H])[2H] (single isomer, unassigned) [Example 22 - Isomer 2] has human muscarinic M1 receptor (Homo sapiens) EC50 equal to 79.4 nM

# credit: patent US9266857B2
